# assay_method_text: qHTS of pediatric cancer cell lines to identify multiple opportunities for drug repurposing: Primary screen for SJ-GBM2 cells (AID 1347091)
# assay_context: SJ-GBM2 viability, CellTiter-Glo luminescence, 48 h; series mostly up to 46 µM
# Procedure: Drug repurposing or repositioning has been offered as a strategy for drug development in oncology programs. […] [1] Shen, M et al. Quantitative high-throughput phenotypic screening of pediatric cancer cell lines identifies multiple opportunities for drug repurposing. […] Cells were assayed in growth media at a density of 500-1,000 cells/well. […] After a 15 min incubation at room temperature, samples were analyzed for luminescence intensity using a ViewLux High-throughput CCD imager equipped with clear filters.
Records with an inconclusive call do not appear. Activity calls are given as the source filed them. Calls come from the whole dose curve; as a rule, active = well fitted cell-killing curve with a large enough effect; inconclusive = small, poorly fitted or top-dose-only effect; inactive = no such curve, though single readings can be large or run the other way.
Tick one outcome: YES for active, NO for inactive

{"compound": "CNC(=O)c1ccccc1Sc1ccc2c(/C=C/c3ccccn3)n[nH]c2c1", "assigned_category": "YES"}
{"compound": "CC(C)NCC(O)COc1ccc(COCCOC(C)C)cc1 (stereo unspecified)", "assigned_category": "NO"}

input: Hi team, can someone confirm the assay call for CCc1ccc(CCOc2ccc(CC3SC(=O)NC3=O)cc2)nc1 (stereo unspecified) ?
output: NO

input: Hi team, can someone confirm the assay call for `C1COC(NC(C2CC2)C2CC2)=N1` ?
output: NO

input: Hi team, can someone confirm the assay call for `CCOc1ccn(-c2ccc(F)cc2)c(=O)c1C(=O)Nc1ccc(Oc2ccnc(N)c2Cl)c(F)c1` ?
output: YES

input: Hi team, can someone confirm the assay call for `Cc1ccc(N(CC2=NCCN2)c2cccc(O)c2)cc1` ?
output: NO

input: Hi team, can someone confirm the assay call for `Cc1ccc(-n2nc(C(C)(C)C)cc2NC(=O)Nc2ccc(OCCN3CCOCC3)c3ccccc23)cc1` ?
output: NO

input: Hi team, can someone confirm the assay call for `Cc1[nH]c(=O)c(C#N)cc1-c1ccc2nccn2c1` ?
output: NO

input: Hi team, can someone confirm the assay call for `NC(=O)c1cnccn1` ?
output: NO

input: Hi team, can someone confirm the assay call for `CC(C)OC(=O)C1=CN(C(=O)c2ccc(F)c(F)c2)CC(C)(C)c2c1[nH]c1ccccc21` ?
output: NO

input: Hi team, can someone confirm the assay call for NCCCC(N)(C(=O)O)C(F)F (stereo unspecified) ?
output: NO

* * *

# assay_system: RecQ-like DNA helicase BLM (Homo sapiens)
# assay_method_text: qHTS Validation Assay for Inhibitors of Bloom's syndrome helicase (BLM) (AID 2364); note: potency is the fitted concentration of half-maximal effect
# assay_context: BLM helicase DNA unwinding, fluorescence, in vitro; series mostly up to 57.1 µM
Results filed as inconclusive are left out. Calls of active or inactive are those of the source. Calls follow the shape of the dose curve; as a rule, active = well fitted inhibition curve with a large enough effect; inconclusive = small, poorly fitted or top-dose-only effect; inactive = no such curve, though single readings can be large or run the other way.
measured_attribute: Potency

Past entries and their recorded results:
{"molecule": "CC(C)(C)NCC(O)c1ccc(O)c(CO)c1 (configuration not stated)", "assay_system": "RecQ-like DNA helicase BLM (Homo sapiens)", "Potency": "inactive"}
{"molecule": "C1COC(NC(C2CC2)C2CC2)=N1", "assay_system": "RecQ-like DNA helicase BLM (Homo sapiens)", "Potency": "inactive"}
{"molecule": "CC(C[N+](C)(C)C)OC(N)=O (configuration not stated)", "assay_system": "RecQ-like DNA helicase BLM (Homo sapiens)", "Potency": "inactive"}
{"molecule": "CC(C)NCC(O)COc1ccc(COCCOC(C)C)cc1 (configuration not stated)", "assay_system": "RecQ-like DNA helicase BLM (Homo sapiens)", "Potency": "inactive"}
{"molecule": "CC(C)(Sc1ccc(CCN(CCCCC2CCCCC2)C(=O)NC2CCCCC2)cc1)C(=O)O", "assay_system": "RecQ-like DNA helicase BLM (Homo sapiens)", "Potency": "28.2 µM (active)"}

Now look at this one.
input: Provide RecQ-like DNA helicase BLM (Homo sapiens) Potency reading for CCn1cc(C(=O)O)c(=O)c2cc(F)c(N3CCNC(C)C3)c(F)c21 (configuration not stated) .
output: inactive

* * *

# assay_method_text: qHTS profiling of the MIPE4 collection as inhibitors of Plasmodium falciparum (DD2) proliferation (AID 743345)
# assay_context: P. falciparum Dd2 in erythrocytes, SYBR Green DNA, 72 h; at 28.5 µM (top of the series) unless noted
Please use 1 for parasite growth remaining, % of DMSO control (lower = more inhibition) under 80% and 0 for everything else, ties included.

Some entries whose results are on file:
{"molecule": "COc1ccc(-c2ccc3c(N4CCOC[C@H]4C)nc(N4CCOC[C@H]4C)nc3n2)cc1CO", "assigned_category": 1}
{"molecule": "Cc1cc(-c2ccc(CC(=O)Nc3ccc(-c4cccnc4)cc3)cc2)ccn1", "assigned_category": 0}
{"molecule": "Cc1csc(NC(=O)c2sc3nc4c(c(C(F)(F)F)c3c2N)CCC4)n1", "assigned_category": 0}
{"molecule": "OC(CCN1CCCCC1)(c1ccccc1)C1CC2C=CC1C2 (centres undefined)", "assigned_category": 1}
{"molecule": "O=C1CCCC2=C1C(c1[nH]ncc1Cl)N=C(Nc1nc3ccccc3o1)N2 (centres undefined)", "assigned_category": 1}
{"molecule": "COc1ccc(C2=N[C@H](c3ccc(Cl)cc3)[C@H](c3ccc(Cl)cc3)N2C(=O)N2CCNC(=O)C2)c(OC(C)C)c1", "assigned_category": 1}
{"molecule": "CN(C)c1ccc(C2Nc3ccc4ccccc4c3C3=C2C(=O)CC(C)(C)C3)cc1Br (centres undefined)", "assigned_category": 1}

input: Determine whether this molecule shows parasite growth remaining, % of DMSO control (lower = more inhibition) lower than 80% (ties excluded): `CCOc1cc(N2CCC(O)CC2)ccc1Nc1ncc2c(n1)N(C)c1ccccc1C(=O)N2C`
output: 1

* * *

# assay_method_text: Cell Proliferation Assay against the TMD8 Cell Line (AID 651645);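 note: cells exposed to compound for 48 h before reading; 100% = DMSO and 0% = 9.2 µM bortezomib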
# assay_context: TMD8 DLBCL cell line proliferation/viability; at 46.1 µM (top of the series) unless noted
Please use yes (1) for viability (% of control) under 30% and no (0) for everything else, ties included.

{"compound": "COc1cccc2cc(-c3nc(C4CCC(C(=O)O)CC4)n4ncnc(N)c34)[nH]c12 (stereo not drawn)", "assigned_category": "yes (1)"}
{"compound": "CC(C)C[C@H](NC(=O)[C@@H](O)[C@H](N)Cc1ccccc1)C(=O)O", "assigned_category": "no (0)"}
{"compound": "Cc1c(CCOc2ccc(C(=O)O)cc2)c2cc(Cl)ccc2n1C(c1ccccc1)c1ccccc1", "assigned_category": "no (0)"}
{"compound": "CCn1c(-c2nonc2N)nc2c(C#CC(C)(C)O)ncc(OC[C@H]3CCCNC3)c21", "assigned_category": "yes (1)"}
{"compound": "CC(C)(Sc1ccc(CCN(CCCCC2CCCCC2)C(=O)NC2CCCCC2)cc1)C(=O)O", "assigned_category": "no (0)"}

input: Determine whether this compound shows viability (% of control) lower than 30% (ties excluded): COc1ccc2nc(S(=O)Cc3ncc(C)c(OC)c3C)[nH]c2c1 (stereo not drawn)
output: no (0)

input: Determine whether this compound shows viability (% of control) lower than 30% (ties excluded): `Cc1ccnc(NS(=O)(=O)c2ccc(NC(=O)Nc3ccc(S(=O)(=O)Nc4nccc(C)n4)cc3)cc2)n1`
output: no (0)

input: Determine whether this compound shows viability (% of control) lower than 30% (ties excluded): `CCCc1nc2c(C)cc(-c3nc4ccccc4n3C)cc2n1Cc1ccc(-c2ccccc2C(=O)O)cc1`
output: no (0)

input: Determine whether this compound shows viability (% of control) lower than 30% (ties excluded): `Cc1cc([C@@H](C)Nc2ccccc2C(=O)O)c2nc(N3CCOCC3)cc(=O)n2c1`
output: yes (1)

input: Determine whether this compound shows viability (% of control) lower than 30% (ties excluded): `CCn1c(-c2nonc2N)nc2cnc(Oc3cccc(NC(=O)c4ccc(OCCN5CCOCC5)cc4)c3)cc21`
output: yes (1)

input: Determine whether this compound shows viability (% of control) lower than 30% (ties excluded): `COc1ccc(C2=N[C@H](c3ccc(Cl)cc3)[C@H](c3ccc(Cl)cc3)N2C(=O)N2CCNC(=O)C2)c(OC(C)C)c1`
output: yes (1)

input: Determine whether this compound shows viability (% of control) lower than 30% (ties excluded): `O=C(c1cc(Cc2n[nH]c(=O)c3ccccc23)ccc1F)N1CCN(C(=O)C2CC2)CC1`
output: no (0)

input: Determine whether this compound shows viability (% of control) lower than 30% (ties excluded): `CO[C@@H]1[C@H](N(C)C(=O)c2ccccc2)C[C@H]2O[C@]1(C)n1c3ccccc3c3c4c(c5c6ccccc6n2c5c31)C(=O)NC4`
output: yes (1)

input: Determine whether this compound shows viability (% of control) lower than 30% (ties excluded): `C[C@H](NC(=O)Cc1cc(F)cc(F)c1)C(=O)N[C@@H]1C(=O)N(C)c2ccccc2-c2ccccc21`
output: no (0)

* * *

# assay_method_text: Quantitative High-Throughput drug screen in 47 multiple myeloma cell lines against the NCATS MIPE library collection: JIM3_ECACC cell viability assay (AID 1918963; note: nearly all actives have a fitted effect of over 35% in size; note: potency is the fitted concentration of half-maximal effect)
# assay_context: JIM3 myeloma viability, CellTiter-Glo ATP, 48 h; series mostly up to 45.8 µM
Records with an inconclusive call do not appear. Activity calls are given as the source filed them. Calls come from the whole dose curve; as a rule, active = well fitted cell-killing curve with a large enough effect; inconclusive = small, poorly fitted or top-dose-only effect; inactive = no such curve, though single readings can be large or run the other way.
measured_attribute: Potency

{"compound": "c1ccc([C@H]2CN3CCSC3=N2)cc1", "meas_value": "inactive"}
{"compound": "C[C@@H]1CN(Cc2ccc(F)cc2)[C@@H](C)CN1C(=O)c1cc2c(C(=O)C(=O)N(C)C)cn(C)c2cc1Cl", "meas_value": "13.2 µM (active)"}
{"compound": "NC(=O)c1ccc(I)c([N+](=O)[O-])c1", "meas_value": "18.7 µM (active)"}
{"compound": "Nc1ccc(S(=O)(=O)Nc2ccnn2-c2ccccc2)cc1", "meas_value": "inactive"}
{"compound": "Nc1nc2c(ncn2COCCO)c(=O)[nH]1", "meas_value": "inactive"}

input: Let me know recorded Potency for `NC(=O)c1cnccn1` , thanks.
output: inactive

input: Let me know recorded Potency for `Cc1cccc(-c2nn(C(=S)Nc3ccccc3)cc2-c2ccnc3ccccc23)n1` , thanks.
output: 13.2 µM (active)

input: Let me know recorded Potency for `NC(=O)c1ccc(-c2nc(-c3ccc4c(c3)OCO4)c(-c3ccccn3)[nH]2)cc1` , thanks.
output: inactive

input: Let me know recorded Potency for CC(C)(C)NCC(O)c1ccc(O)c(CO)c1 (configuration not stated) , thanks.
output: inactive

input: Let me know recorded Potency for `NC[C@H](O)c1ccc(O)c(O)c1` , thanks.
output: inactive

input: Let me know recorded Potency for `COc1ccc(-c2oc3cc(OC)ccc3c2C(=O)c2ccc(C#N)cc2)cc1` , thanks.
output: inactive

Recorded values, source PubChem BioAssay (NCATS).
